assay.summary: Aqueous solubility of the compound in 50 mM of potassium phosphate buffer at pH 6.8 by turbidimetric method
Assay type: physicochemical
measurement.type: solubility kinetic (µg/mL)
Give the number; µg/mL is assumed, so skip it.

Ask | What does the data say about its solubility kinetic? Entry: O=C(c1ccc(-c2ccccn2)s1)N1N=C(c2cccnc2)CC1c1ccccc1O (racemic)
Reply | 5.8

###

target.or.system: Serine/threonine-protein kinase B-raf (Homo sapiens, UniProt P15056, V600E)
Sequence (P15056 2-766 V600E limits assumed): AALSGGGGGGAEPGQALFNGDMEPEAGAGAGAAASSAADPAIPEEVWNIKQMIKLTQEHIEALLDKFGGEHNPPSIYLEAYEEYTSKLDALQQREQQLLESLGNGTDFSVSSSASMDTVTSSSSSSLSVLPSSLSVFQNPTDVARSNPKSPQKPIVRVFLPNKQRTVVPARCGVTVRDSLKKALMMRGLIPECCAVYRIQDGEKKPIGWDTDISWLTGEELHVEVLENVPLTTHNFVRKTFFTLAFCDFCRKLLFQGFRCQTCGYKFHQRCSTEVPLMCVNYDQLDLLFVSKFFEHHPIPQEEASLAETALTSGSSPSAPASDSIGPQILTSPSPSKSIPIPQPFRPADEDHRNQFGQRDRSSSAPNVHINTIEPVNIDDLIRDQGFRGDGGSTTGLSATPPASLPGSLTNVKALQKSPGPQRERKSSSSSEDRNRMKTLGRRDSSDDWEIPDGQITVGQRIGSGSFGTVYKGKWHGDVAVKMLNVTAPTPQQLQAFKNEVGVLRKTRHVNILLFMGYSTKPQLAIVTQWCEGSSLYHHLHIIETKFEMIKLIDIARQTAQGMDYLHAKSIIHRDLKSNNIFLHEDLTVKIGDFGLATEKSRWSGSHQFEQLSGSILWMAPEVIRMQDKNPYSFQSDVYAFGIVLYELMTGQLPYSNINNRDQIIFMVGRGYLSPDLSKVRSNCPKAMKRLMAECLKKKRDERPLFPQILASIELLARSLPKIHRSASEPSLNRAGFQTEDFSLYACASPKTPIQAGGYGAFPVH
assay.summary: Inhibition of B-Raf V600E mutant after 2 hrs
setup.conditions: in the assay text read “after 3 hrs” for “after 2 hrs”
pIC50: −log10 of the molar value.
Answer no if pIC50 is under 8, and yes if it is 8 or more.

// known answers, use as guide
molecule | label.value
Nc1cncc(C2=NN(C(=O)c3ccc(-c4ccccn4)s3)C(c3ccccc3O)C2)c1 (racemic) | yes
Cn1cc(-c2ccc(C(=O)N3N=C(c4cccnc4)CC3c3c(O)cccc3F)s2)cn1 (racemic) | yes
Nc1cncc(C2=NN(C(=O)c3ccc(-c4ccccn4)s3)C(c3c(O)cccc3F)C2)c1 (racemic) | yes

Ask | Evaluate O=C(c1ccc(-c2ccc3c(c2)CCNC3)s1)N1N=C(c2cccnc2)CC1c1ccccc1O (racemic) : pIC50 at minimum 8?
Reply | yes

Ask | Please answer likewise for O=C(c1ccc(-c2ccc(CO)cc2)s1)N1N=C(c2cccnc2)CC1c1ccccc1O (racemic)
Reply | yes

Ask | How about O=C(c1ccc(-c2ccc3c(c2)CNC3)s1)N1N=C(c2cncc(CO)c2)CC1c1c(O)cccc1F (racemic) ?
Reply | yes

Ask | Entry O=C(c1ccc(-c2ccccn2)s1)N1N=C(c2cccnc2)CC1c1cccc(O)c1 (racemic) please
Reply | no

Ask | // query: NCc1ccccc1-c1ccc(C(=O)N2N=C(c3cncc(N)c3)CC2c2c(O)cccc2F)s1 (racemic)
Reply | yes

Ask | Now give it for O=C(c1ccc(-c2ccc3c(c2)CNCC3)s1)N1N=C(c2cccnc2)CC1c1ccccc1O (racemic) too.
Reply | yes

Ask | Repeat for the following molecule: CC(=O)Nc1cncc(C2=NN(C(=O)c3ccc(-c4ccccn4)s3)C(c3ccccc3O)C2)c1 (racemic)
Reply | yes

Ask | Then what about the molecule NCc1ccc(-c2ccc(C(=O)N3N=C(c4cccnc4)CC3c3ccccc3O)s2)cc1 (racemic) ?
Reply | yes

Ask | Query O=C(c1ccc(-c2ccccn2)s1)N1N=C(c2cccnc2)CC1c1ccccc1 (racemic) next
Reply | no

###

target.or.system: Serine/threonine-protein kinase B-raf (Homo sapiens, UniProt P15056, V600E)
assay.summary: Inhibition of B-Raf V600E mutant-mediated pERK phosphorylation in human A375 cells after 3 hrs by whole cell ELISA assay
Assay type: cell-based, A-375
Rule for this label: Met means IC50 is less than 80 nM; Not met means IC50 is at least 80 nM.

See these solved cases before continuing.
compound | target.or.system | label.value
NCc1ccccc1-c1ccc(C(=O)N2N=C(c3cncc(N)c3)CC2c2c(O)cccc2F)s1 (racemic) | Serine/threonine-protein kinase B-raf (Homo sapiens, UniProt P15056, V600E) | Met
NCc1ccccc1-c1ccc(C(=O)N2N=C(c3cncc(N)c3)CC2c2ccccc2O)s1 (racemic) | Serine/threonine-protein kinase B-raf (Homo sapiens, UniProt P15056, V600E) | Met

# next compound below
Ask | Is IC50 strictly under 80 nM for the entry O=C(c1ccc(-c2cccc(CN3CCCC3)c2)s1)N1N=C(c2cccnc2)CC1c1ccccc1O (racemic) ?
Reply | Not met

###

Listed compounds paired with reported AUC
assay.summary: AUC in Sprague-Dawley rat at 0.5 to 1 mg/kg, iv and 10 mg/kg, po
Assay type: ADME, organism-based
setup.conditions: plasma
Give the figure together with its unit, number first.

Answered examples (4):
compound | value.observed
NCc1ccccc1-c1ccc(C(=O)N2N=C(c3cccnc3)CC2c2c(O)cccc2F)s1 (racemic) | 11 µM·h
O=C(c1ccc(-c2cccc3c2CCNC3)s1)N1N=C(c2cccnc2)CC1c1c(O)cccc1F (racemic) | 26 µM·h
NCc1ccccc1-c1ccc(C(=O)N2N=C(c3cccnc3)CC2c2ccccc2O)s1 (racemic) | 4.9 µM·h
O=C(c1ccc(-c2ccc3c(c2)CNC3)s1)N1N=C(c2cccnc2)CC1c1ccccc1O (racemic) | 0.89 µM·h

Please look at the following compound next.
Ask | For the compound O=C(c1ccc(-c2ccc3c(c2)CNC3)s1)N1N=C(c2cccnc2)CC1c1c(O)cccc1F (racemic) , what AUC is on record?
Reply | 8.4 µM·h

###

target.or.system: Serine/threonine-protein kinase B-raf (Homo sapiens, UniProt P15056, V600E)
assay.summary: Inhibition of B-Raf V600E mutant-mediated pERK phosphorylation in human A375 cells after 3 hrs by whole cell ELISA assay
Format: cell-based, A-375
Here, each record is paired with measured log10 IC50 data.
# values: log10(IC50), units µM

Use the examples below as a reference point.
compound | log10 IC50
O=C(c1ccco1)N1N=C(c2cccnc2)CC1c1ccccc1O (racemic) | 0.26
NCc1ccccc1-c1ccc(C(=O)N2N=C(c3cccnc3)CC2c2c(O)cccc2F)s1 (racemic) | -1.07
Cn1cc(-c2ccc(C(=O)N3N=C(c4cccnc4)CC3c3c(O)cccc3F)s2)cn1 (racemic) | -1.26
Nc1cncc(C2=NN(C(=O)c3ccc(-c4ccccn4)s3)C(c3c(O)cccc3F)C2)c1 (racemic) | -1.74
NCc1ccccc1-c1ccc(C(=O)N2N=C(c3cccnc3)CC2c2ccccc2O)s1 (racemic) | -0.57

Ask | Lab note: need log10 IC50 for Cn1cc(-c2ccc(C(=O)N3N=C(c4cccnc4)CC3c3ccccc3O)s2)cn1 (racemic) on Serine/threonine-protein kinase B-raf (Homo sapiens, UniProt P15056, V600E), anyone have it?
Reply | -1.05

Ask | // repeat for NCc1ccccc1-c1ccc(C(=O)N2N=C(c3cncc(F)c3)CC2c2ccccc2O)s1 (racemic) and report
Reply | -0.74

Ask | Next compound: CC(=O)Nc1cncc(C2=NN(C(=O)c3ccc(-c4ccccn4)s3)C(c3ccccc3O)C2)c1 (racemic)
Reply | -1.20

###

target.or.system: Serine/threonine-protein kinase B-raf (Homo sapiens, UniProt P15056, V600E)
assay.summary: Inhibition of B-Raf V600E mutant-mediated pERK phosphorylation in human A375 cells after 3 hrs by whole cell ELISA assay
Type: cell-based, A-375
Listing: log10 of IC50 of selected molecules
Response schema: value (number) is log10 of IC50 in units of nM.

molecule | log10 of IC50
O=C(c1ccc(-c2ccccn2)s1)N1N=C(c2cccnc2)CC1c1cc(F)ccc1O (racemic) | 2.83

Ask | Can you look up the measured log10 of IC50 of O=C(c1ccc(-c2cccc(CN3CCCC3)c2)s1)N1N=C(c2cccnc2)CC1c1c(O)cccc1F (racemic) for me?
Reply | 1.61

Ask | Now the same for Cc1nc(-c2ccc(C(=O)N3N=C(c4cccnc4)CC3c3ccccc3O)s2)cs1 (racemic)
Reply | 2.32

Ask | Consider next the molecule O=C(c1ccc(-c2ccccn2)s1)N1N=C(c2cccnc2)CC1c1ccc(F)cc1O (racemic) in the same way.
Reply | 3.15

Ask | Quick one: O=C(c1ccc(-c2ccccn2)s1)N1N=C(c2cccnc2)CC1c1ccccc1O (single isomer, unassigned; enantiomer 2)
Reply | 4.15

Ask | Same question, O=C(c1ccc(-c2ccccn2)s1)N1N=C(c2cncc(CO)c2)CC1c1ccccc1O (racemic) this time
Reply | 1.59

###

target.or.system: Serine/threonine-protein kinase B-raf (Homo sapiens, UniProt P15056, V600E)
assay.summary: Inhibition of B-Raf V600E mutant after 2 hrs
setup.conditions: in the assay text read “after 3 hrs” for “after 2 hrs”
The following molecules are listed with their measured pIC50 values.
The scale used: pIC50 is minus the common logarithm of the concentration in molar units.

Check out these entries, answers already filled in.
molecule | pIC50
NCc1ccccc1-c1ccc(C(=O)N2N=C(c3cccnc3)CC2c2ccccc2O)s1 (racemic) | 8.00
O=C(c1ccc(-c2ccccn2)s1)N1N=C(c2cncc(CO)c2)CC1c1ccccc1O (racemic) | 8.52
O=C(c1ccc(-c2ccc3c(c2)CNC3)s1)N1N=C(c2cccnc2)CC1c1ccccc1O (racemic) | 8.40
NCc1ccc(-c2ccc(C(=O)N3N=C(c4cccnc4)CC3c3c(O)cccc3F)s2)cc1 (racemic) | 8.52

Ask | # query: pIC50 | item O=C(c1ccc(-c2ccc3c(c2)CNCC3)s1)N1N=C(c2cccnc2)CC1c1c(O)cccc1F (racemic) | system: Serine/threonine-protein kinase B-raf (Homo sapiens, UniProt P15056, V600E)
Reply | 8.52

Ask | // repeat for O=C(c1ccc(-c2ccccn2)s1)N1N=C(c2cccnc2)CC1c1c(O)cccc1F (racemic) and report
Reply | 8.30

Ask | Further, for Cc1ccccc1-c1ccc(C(=O)N2N=C(c3cccnc3)CC2c2ccccc2O)s1 (racemic) ?
Reply | 7.10

Ask | Queued: O=C(c1ccc(-c2ccc3c(c2)CCNC3)s1)N1N=C(c2cccnc2)CC1c1c(O)cccc1F (racemic)
Reply | 8.52
